# system under test: thrombin (Homo sapiens)
# Construct: consists of two polypeptide chains of 36 (light chain) and 259 amino acid
# experiment description: Thrombin inhibition screen of crude macrocycle reactions (residual thrombin activity, fluorogenic substrate Z-Gly-Gly-Arg-AMC)
# Assay type: biochemical
# condition: 10 µM macrocycle concentration; macrocycles containing acid 14; crude reaction; replicate reaction and screen
Numbered stars: 1 amine (or outer) side, 2 acyl side, 3 side chain; on linkers, the order of the positions; unused ones are H or OH. Bridge positions count the residues as written; N and C are the ends. Square brackets hold non-standard residues; d marks the D form. Peptide text beside a SMILES is read from it. * marks the point of attachment. 2Thenoyl(5-Cl) = O=C(c1ccc(Cl)s1)*; Cysteamide = C(CS[*:3])N[*:1]; Api = NC1(C(=O)O)CCNCC1; Mpa = O=C(O)CCS
parameter: % thrombin activity, Repeat screen (%)

| compound | % thrombin activity, Repeat screen (%) |
| --- | --- |
| O=C1CNC(=O)[C@H](Cc2ccc(O)cc2)NC(=O)[C@@H]2CCCN2C(=O)[C@@H](NC(=O)c2ccc(Cl)s2)CSSCCN1 [C B1 Y G] ({2Thenoyl(5-Cl)}-CPYG-Cysteamide; disulfide 1-C) | 102.3 |
| NC(=O)CC[C@@H]1NC(=O)CCSSCCNC(=O)C2(CCN(C(=O)c3ccc(Cl)s3)CC2)NC(=O)CCNC1=O [X Q B2 D6] | 98.1 |
| O=C1NCCSSCCC(=O)N2CCC[C@H]2C(=O)NC2(CCN(C(=O)c3ccc(Cl)s3)CC2)C(=O)N[C@H]1Cc1c[nH]cn1 [X B1 D6 H] ([Mpa]P[Api](2Thenoyl(5-Cl))H-Cysteamide; disulfide 1-C) | 94.0 |
| C[C@H]1NC(=O)CCSSCCNC(=O)[C@H](CCCCNC(=O)c2ccc(Cl)s2)NC(=O)CCNC1=O [X a B2 D1] | 101.4 |

----------
# system under test: MDM2 (Homo sapiens)
# Sequence (Q00987 whole entry): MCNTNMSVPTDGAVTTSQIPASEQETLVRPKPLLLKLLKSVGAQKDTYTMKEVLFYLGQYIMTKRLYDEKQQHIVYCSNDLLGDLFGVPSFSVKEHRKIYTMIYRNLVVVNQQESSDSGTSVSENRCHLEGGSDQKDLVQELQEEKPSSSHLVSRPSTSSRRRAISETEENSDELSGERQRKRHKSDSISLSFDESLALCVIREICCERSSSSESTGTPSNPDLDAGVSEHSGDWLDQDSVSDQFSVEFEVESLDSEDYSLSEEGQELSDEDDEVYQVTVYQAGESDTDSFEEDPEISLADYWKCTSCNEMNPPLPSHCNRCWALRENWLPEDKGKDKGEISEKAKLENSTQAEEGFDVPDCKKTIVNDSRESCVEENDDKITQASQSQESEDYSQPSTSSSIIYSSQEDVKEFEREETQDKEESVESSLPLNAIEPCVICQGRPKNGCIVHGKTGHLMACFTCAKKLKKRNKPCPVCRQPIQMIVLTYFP
# experiment description: MDM2 binding screen: displacement of fluorescent p53 peptide probe FP53 (fluorescence polarization)
# condition: Acid 91; initial screen; crude macrocycle reactions
Numbered stars: 1 amine (or outer) side, 2 acyl side, 3 side chain; on linkers, the order of the positions; unused ones are H or OH. Bridge positions count the residues as written; N and C are the ends. Square brackets hold non-standard residues; d marks the D form. Peptide text beside a SMILES is read from it. * marks the point of attachment. Cysteamide = C(CS[*:3])N[*:1]; X1 = O=C(/C=C/c1ccccc1)*; Api = NC1(C(=O)O)CCNCC1; Mpa = O=C(O)CCS
parameter: fraction fluorescent probe displaced, Screen

| compound | measured value |
| --- | --- |
| O=C1CCSSCCNC(=O)[C@@H]2CCCN2C(=O)[C@H](Cc2ccccc2)NC(=O)C2(CCN(C(=O)/C=C/c3ccccc3)CC2)N1 [X D6 F B1 Acid 91] ([Mpa][Api](X1)FP-Cysteamide; disulfide 1-C) | -0.05 |

a = O=C(C=Cc1ccccc1)NC1CC2C(=O)NCCC(=O)NCCSSCCC(=O)NC(Cc3ccccc3)C(=O)N2C1 (stereo not shown)
b = O=C1CCNC(=O)C2(CCN(C(=O)/C=C/c3ccccc3)CC2)NC(=O)CCSSCCNC(=O)[C@H](Cc2ccccc2)N1
c = O=C(/C=C/c1ccccc1)NC[C@@H]1NC(=O)[C@H]2CCCN(C2)C(=O)[C@H](Cc2ccccc2)NC(=O)CCSSCCNC1=O
d = O=C1CCNC(=O)C2(CCN(C(=O)C=Cc3ccccc3)CC2)NC(=O)C(Cc2c[nH]c3ccccc23)NC(=O)CCSSCCN1 (stereo not shown)
e = O=C(C=Cc1ccccc1)NC1CC2C(=O)NCCSSCCC(=O)N3CCCC(C3)C(=O)NC(Cc3ccccc3)C(=O)N2C1 (stereo not shown)
Prompt: Sort these compounds on fraction fluorescent probe displaced, Screen so the largest reading comes first. Please respond with the labels ordered as the question requires.
Completion: d, c, a, b, e

P = O=C(C=Cc1ccccc1)NC1CC2C(=O)NCCSSCCC(=O)NC(Cc3c[nH]c4ccccc34)C(=O)NCc3cccc(c3)C(=O)N2C1 (stereo not shown)
Q = O=C1NC(Cc2c[nH]c3ccccc23)C(=O)N2CCCC2C(=O)NCCSSCCC(=O)N2CCN(C(=O)C=Cc3ccccc3)CC12 (stereo not shown)
R = O=C1CCSSCCNC(=O)C2CN(C(=O)C=Cc3ccccc3)CCN2C(=O)c2cccc(c2)CNC(=O)C(Cc2c[nH]c3ccccc23)N1 (stereo not shown)
S = O=C(C=Cc1ccccc1)NC1CC2C(=O)NCCSSCCC(=O)NC(Cc3c[nH]c4ccccc34)C(=O)N3CCCC(C3)C(=O)N2C1 (stereo not shown)
Prompt: Order each entry by recorded fraction fluorescent probe displaced, Screen, climbing from the minimum. // list labels; follow requested order
Completion: Q, P, R, S
(Q: -0.0241, P: 0.08, R: 0.16, S: 0.30)

I = O=C(/C=C/c1ccccc1)NC[C@@H]1NC(=O)CCSSCCNC(=O)[C@H](Cc2ccccc2)NC(=O)CCNC1=O
II = O=C(/C=C/c1ccccc1)NC[C@@H]1NC(=O)[C@H](Cc2c[nH]c3ccccc23)NC(=O)CCNC(=O)CCSSCCNC1=O
III = O=C(/C=C/c1ccccc1)NC[C@@H]1NC(=O)c2cccc(c2)CNC(=O)[C@H](Cc2ccccc2)NC(=O)CCSSCCNC1=O
Prompt: Please order the records by their reported fraction fluorescent probe displaced, Screen, lowest number first. Your answer should be the labels, listed in the requested order.
Completion: III, I, II

1 = O=C(/C=C/c1ccccc1)NC[C@@H]1NC(=O)[C@H](Cc2c[nH]c3ccccc23)NC(=O)CCSSCCNC(=O)c2cccc(c2)CNC1=O
2 = O=C(/C=C/c1ccccc1)NC[C@@H]1NC(=O)[C@H](Cc2c[nH]c3ccccc23)NC(=O)c2cccc(c2)CNC(=O)CCSSCCNC1=O
Prompt: Identify the entry with the smaller fraction fluorescent probe displaced, Screen: 1 or 2 . Lab note: record the label of whichever item you select.
Completion: 1
